System: KRAS-mutant PDC complex spheroid viability
experiment summary: Anticancer human tumor 186277-243-T-J2-PDC patient-derived colon adenocarcinoma cell line growth inhibition [KRAS2]; active means viability on the fitted dose curve at most 10% of control; inactive means the rest
condition label: second compound 0.316 µM; first compound 0.0316 µM
Classes used: 1.0 (active), 0.0 (inactive)

INSERT INTO assay_data (compound, class_assignment) VALUES
  ('CC(=O)OC12COC1CC(O)C1(C)C(=O)C(O)C3=C(C)C(OC(=O)C(O)C(NC(=O)OC(C)(C)C)c4ccccc4)CC(O)(C(OC(=O)c4ccccc4)C21)C3(C)C (configuration not stated) + C=CC(=O)N1CCN(c2nc(OCC3CCCN3C)nc3c2CCN(c2cccc4cccc(C)c24)C3)CC1CC#N', 1.0),
  ('COC(=O)c1ccc2c(C(=Nc3ccc(N(C)C(=O)CN4CCN(C)CC4)cc3)c3ccccc3)c(O)[nH]c2c1 + C=CC(=O)N1CCN(c2nc(OCC3CCCN3C)nc3c2CCN(c2cccc4cccc(C)c24)C3)CC1CC#N', 0.0);

----------
Test system: KRAS-mutant PDC complex spheroid viability
experiment summary: Anticancer human tumor 186277-243-T-J2-PDC cell line growth inhibition [KRAS2];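 further: viability read after seven days of compound exposure; 100% = DMSO vehicle-treated spheroids so lower means less viable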
condition label: second compound 0.1 µM; first compound 1 µM; stronger effect = lower value
endpoint name: viability, T/C (%)

INSERT INTO assay_data (compound, readout_value) VALUES
  ('CC1COCCN1c1cc(-c2ccnn2C)c2ccnc(-c3ccn[nH]3)c2n1 (stereo not given) + COc1cc2nc(C)nc(NC(C)c3cc(N)cc(C(F)(F)F)c3)c2cc1OC1CCOC1', 2.04),
  ('CC1OCC2(CCN(c3cnc(Sc4ccnc(N)c4Cl)c(N)n3)CC2)C1N (stereo not given) + C=CC(=O)N1CCN(c2nc(OCC3CCCN3C)nc3c2CCN(c2cccc4cccc(C)c24)C3)CC1CC#N', 103),
  ('COc1cc(Nc2ncc3c(n2)-c2ccc(Cl)cc2C(c2c(F)cccc2OC)=NC3)ccc1C(=O)O + C=CC(=O)N1CCN(c2nc(=O)n(-c3c(C)ccnc3C(C)C)c3nc(-c4c(O)cccc4F)c(F)cc23)C(C)C1', 34),
  ('COC(=O)c1ccc2c(C(=Nc3ccc(N(C)C(=O)CN4CCN(C)CC4)cc3)c3ccccc3)c(O)[nH]c2c1 + C=CC(=O)N1CCN(c2nc(OCC3CCCN3C)nc3c2CCN(c2cccc4cccc(C)c24)C3)CC1CC#N', 33),
  ('CC1OCC2(CCN(c3cnc(Sc4ccnc(N)c4Cl)c(N)n3)CC2)C1N (stereo not given) + COc1cc2nc(C)nc(NC(C)c3cc(N)cc(C(F)(F)F)c3)c2cc1OC1CCOC1', 108);

----------
Tested on: KRAS-mutant PDC complex spheroid viability
experiment summary: Anticancer human tumor 186277-243-T-J2-PDC cell line growth inhibition [KRAS2];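 further: viability read after seven days of compound exposure; 100% = DMSO vehicle-treated spheroids so lower means less viable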
condition label: second compound 0.1 µM; first compound 1 µM; stronger effect = lower value
endpoint name: viability, T/C (%)

INSERT INTO measurements (compound, readout_value) VALUES
  ('CCNC(=O)CC1N=C(c2ccc(Cl)cc2)c2cc(OC)ccc2-n2c(C)nnc21 (stereo not drawn) + C=CC(=O)N1CCN(c2nc(=O)n(-c3c(C)ccnc3C(C)C)c3nc(-c4c(O)cccc4F)c(F)cc23)C(C)C1', 162),
  ('Cn1nccc1Nc1nccc(-c2cc3c(s2)C(C)(C)N(CCN2CCOCC2)C3=O)n1 + C=CC(=O)N1CCN(c2nc(OCC3CCCN3C)nc3c2CCN(c2cccc4cccc(C)c24)C3)CC1CC#N', 5.12),
  ('O=C(c1cc(Cc2n[nH]c(=O)c3ccccc23)ccc1F)N1CCN(C(=O)C2CC2)CC1 + CNCc1ccccc1-c1csc(C(C)Nc2nc(C)nc3cc(OC)c(OC)cc23)c1', 114);
